Endpoint: melting point

Value lookup for melting point; key = O=C(CN1C(=O)c2ccccc2NC1c1ccccc1)NN=Cc1ccc(O)cc1 (centres unmarked) [5b]
230 to 232 °C

Value lookup for melting point; key = COC(=O)Cn1c(-c2ccccc2)nc2ccccc2c1=O [compound 8]
115 to 116 °C

Value lookup for melting point; key = COC(=O)CN1C(=O)c2cc(Cl)ccc2NC1c1ccccc1 (centres unmarked) [3b]
162 to 163 °C

Value lookup for melting point; key = O=C(CN1C(=O)c2cc(Cl)ccc2NC1c1ccccc1)NN=Cc1ccccc1 (centres unmarked) [5e]
266 to 270 °C

Value lookup for melting point; key = COc1ccc(C=NNC(=O)CN2C(=O)c3ccccc3NC2c2ccccc2)cc1 (centres unmarked) [5c]
210 to 212 °C

---

Hi there, I'd appreciate the recorded inhibition at 10 µM for every entry that follows.
# Experimental target: membrane-bound human MAO-A (Homo sapiens, UniProt P21397)
# Sequence (P21397 whole entry): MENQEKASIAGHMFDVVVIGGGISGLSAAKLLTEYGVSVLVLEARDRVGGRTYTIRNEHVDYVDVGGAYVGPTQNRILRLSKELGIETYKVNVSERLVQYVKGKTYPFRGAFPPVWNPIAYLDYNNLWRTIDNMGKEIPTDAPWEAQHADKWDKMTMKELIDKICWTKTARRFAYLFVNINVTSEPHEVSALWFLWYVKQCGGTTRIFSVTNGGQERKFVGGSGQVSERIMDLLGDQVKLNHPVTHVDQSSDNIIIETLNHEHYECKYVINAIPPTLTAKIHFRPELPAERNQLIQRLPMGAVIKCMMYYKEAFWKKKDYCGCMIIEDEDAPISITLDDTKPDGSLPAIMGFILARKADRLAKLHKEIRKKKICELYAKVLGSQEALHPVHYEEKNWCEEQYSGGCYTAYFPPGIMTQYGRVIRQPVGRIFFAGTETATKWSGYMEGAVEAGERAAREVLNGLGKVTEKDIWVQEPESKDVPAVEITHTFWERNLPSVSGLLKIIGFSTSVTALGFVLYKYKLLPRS
# Assay protocol: MAO-A inhibition, H2O2/horseradish peroxidase coupled fluorescence assay with tyramine
# Type: biochemical
# Run conditions: read-out: % inhibition at 10 μM hMAO-A; 10 μM compound; tyramine 0.8 mM (2 × KM); average of two independent experiments
# number only, unit % dropped from output

Recall the recorded inhibition at 10 µM for COc1cc(C=NNC(=O)Cn2c(C)nc3ccccc3c2=O)ccc1O [12d] with membrane-bound human MAO-A (Homo sapiens, UniProt P21397) and state it.
27

Recall the recorded inhibition at 10 µM for C[C@H](NCc1ccc(OCc2cccc(F)c2)cc1)C(N)=O [safinamide, reference compound] with membrane-bound human MAO-A (Homo sapiens, UniProt P21397) and state it.
11

Recall the recorded inhibition at 10 µM for COc1ccc(/C=N/n2c(C)nc3ccccc3c2=O)cc1 [14c] with membrane-bound human MAO-A (Homo sapiens, UniProt P21397) and state it.
8

Recall the recorded inhibition at 10 µM for COC(=O)CN1C(=O)c2cc(Cl)ccc2NC1c1ccccc1OC (stereo not shown) with membrane-bound human MAO-A (Homo sapiens, UniProt P21397) and state it.
0

Recall the recorded inhibition at 10 µM for Cc1nc2ccccc2c(=O)n1CC(=O)NN with membrane-bound human MAO-A (Homo sapiens, UniProt P21397) and state it.
15

Recall the recorded inhibition at 10 µM for NNC(=O)CN1C(=O)c2cc(Cl)ccc2NC1c1ccccc1 (stereo not shown) with membrane-bound human MAO-A (Homo sapiens, UniProt P21397) and state it.
6

Recall the recorded inhibition at 10 µM for COc1ccc(C=NNC(=O)Cn2c(C)nc3ccccc3c2=O)cc1 [12c] with membrane-bound human MAO-A (Homo sapiens, UniProt P21397) and state it.
5
